system: Mycobacterium tuberculosis; assay: Cornell - Phenotypic assay to identify agents that inhibit growth of Mycobacterium tuberculosis; type: functional; design: scale not given: direction of the effect not stated beside the values; conditions: 10 mM as filed; unlikely as a test dose
In all, about 53,000 compounds went through this assay and about 900 (1.7%) showed an effect of 50% or more. Shown is part of a subset that was picked to be rich in strong results.

- molecule: "Cc1cc(C(C)(O)CNC(=O)c2ccc(Br)o2)c(C)o1 (configuration not stated)"
  assay.system: "Mycobacterium tuberculosis"
  units.symbol: "%"
  Percent Effect: 53.63
- molecule: "Cc1cc(C(C)(O)CNC(=O)C2(C)CCCC2)c(C)o1 (configuration not stated)"
  assay.system: "Mycobacterium tuberculosis"
  units.symbol: "%"
  Percent Effect: 32.83
- molecule: "CCN1CCn2c(C)cnc2C12CCN(C(=O)C(C)C)CC2.O=C(O)C(F)(F)F.O=C(O)C(F)(F)F"
  assay.system: "Mycobacterium tuberculosis"
  units.symbol: "%"
  Percent Effect: 14.47
- molecule: "c1ccc(CNc2ccccc2N2CCCC2)nc1"
  assay.system: "Mycobacterium tuberculosis"
  units.symbol: "%"
  Percent Effect: 18.15
- molecule: "CCOc1ccccc1N1CCN(C(=O)NCc2cc[nH]n2)CC1"
  assay.system: "Mycobacterium tuberculosis"
  units.symbol: "%"
  Percent Effect: -20.55
- molecule: "CC(Oc1ccccc1C(F)(F)F)C(=O)NCC(N)=O (configuration not stated)"
  assay.system: "Mycobacterium tuberculosis"
  units.symbol: "%"
  Percent Effect: -32.94
- molecule: "Cc1cc(CN2CCN(Cc3ccc(C#N)cc3F)CC2)no1"
  assay.system: "Mycobacterium tuberculosis"
  units.symbol: "%"
  Percent Effect: -3.509
- molecule: "COc1ccccc1Nc1nc2c(C)nn(C)c2c(=O)n1C"
  assay.system: "Mycobacterium tuberculosis"
  units.symbol: "%"
  Percent Effect: -35.16
- molecule: "Cc1cccc(NC(=O)[C@@H]2CCCN2Cc2ccc(C#N)cc2F)n1"
  assay.system: "Mycobacterium tuberculosis"
  units.symbol: "%"
  Percent Effect: 12.34
- molecule: "COCCOCCCNC(=O)c1cc(Cl)cc2cccnc12"
  assay.system: "Mycobacterium tuberculosis"
  units.symbol: "%"
  Percent Effect: 14.25
- molecule: "NC(=O)CSCC(=O)NCC1CCCC1"
  assay.system: "Mycobacterium tuberculosis"
  units.symbol: "%"
  Percent Effect: -10.13
- molecule: "Cc1nn(C)c(N(C)C)c1CNCc1ccnc(N2CCOCC2)c1"
  assay.system: "Mycobacterium tuberculosis"
  units.symbol: "%"
  Percent Effect: 31.35

###

system: Mycobacterium tuberculosis; test: Cornell - Phenotypic assay to identify agents that inhibit growth of Mycobacterium tuberculosis; format: functional; set-up: scale not given: direction of the effect not stated beside the values; details: 10 mM as filed; unlikely as a test dose
Out of some 53,000 compounds screened, about 900 (1.7%) showed an effect of 50% or more. The sample as a whole holds a higher share of strong results than the screen did.
Percent Effect: recorded values

- molecule: "CS(=O)(=O)N1CCCCCC1c1cc(-c2ccc(F)cc2)no1 (stereo unspecified)"
  Percent Effect [%]: 7
- molecule: "CN(C)[C@@H]1CCN(C(=O)c2cccn2C)[C@H]1Cc1cnn(C)c1.O=C(O)C(F)(F)F"
  Percent Effect [%]: -22.73
- molecule: "Cc1ccc(C2CSCCN2C(=O)c2cccs2)o1 (stereo unspecified)"
  Percent Effect [%]: -1.514
- molecule: "COCc1ncc(CN2CCC3(CCNC(=O)CC3)CC2)cn1"
  Percent Effect [%]: 18.36
- molecule: "CCOC(=O)[C@@H]1[C@@H](O)C(=O)N(C)C12CCN(C(=O)OC)CC2"
  Percent Effect [%]: -16.14
- molecule: "CC(C)c1noc(CN(Cc2ccc(F)cc2)C2CC2)n1"
  Percent Effect [%]: -14.54
- molecule: "Cn1cccc1C(O)CNC(=O)COc1ccc(Cl)cc1Cl (stereo unspecified)"
  Percent Effect [%]: 63.83
- molecule: "O=C(O)C(F)(F)F.c1ccc(CN2CCc3ncnc(-c4ccsc4)c3CC2)nc1"
  Percent Effect [%]: 15.9
- molecule: "CCC(CN1CCOCC1)n1cncc1-c1ccc2c(c1)CCCN2C.Cl (stereo unspecified)"
  Percent Effect [%]: 15.31
- molecule: "Cn1cccc1C(O)CNC(=O)c1ccc2nsnc2c1 (stereo unspecified)"
  Percent Effect [%]: 20.08
- molecule: "Cn1cc(N2C(=O)CC[C@@H]3[C@H]2CCN3C(=O)c2cscn2)cn1.O=C(O)C(F)(F)F"
  Percent Effect [%]: 15.97
- molecule: "COCC(=O)NC[C@]1(O)CN(Cc2ccc3c(c2)OCCO3)C[C@H]1O"
  Percent Effect [%]: 24.95
- molecule: "CC(=O)Nc1nc(CN2CCn3c(C)nnc3C2)cs1"
  Percent Effect [%]: -12.41
- molecule: "CC(C)(C(N)=O)S(=O)(=O)c1ccc(Br)cc1"
  Percent Effect [%]: 7.461
- molecule: "CN(CCc1nc2ccccc2c(=O)[nH]1)CCC(F)(F)F"
  Percent Effect [%]: 95.2
- molecule: "CN(C)S(=O)(=O)N1CCCCCC1c1cc(-c2ccc(F)cc2)no1 (stereo unspecified)"
  Percent Effect [%]: 73.32
- molecule: "CNc1nc2c(s1)C(c1ccccc1Cl)CC(=O)N2 (stereo unspecified)"
  Percent Effect [%]: 45.9
- molecule: "Cn1nccc1-c1ncc(-c2cc(C(=O)O)n(CC3CC3)c2)cn1"
  Percent Effect [%]: -21.93
- molecule: "Cc1cc(C(=O)N2CC[C@H]3[C@@H]2CCC(=O)N3c2ccccc2)no1"
  Percent Effect [%]: 0.08428
- molecule: "CCNC(=O)N1CCc2ccc(NC(=O)C(C)c3ccsc3)cc21 (stereo unspecified)"
  Percent Effect [%]: -7.199
- molecule: "CCC(CN1CCCC1)n1cncc1-c1cnn(-c2ccc(F)cc2)c1.Cl (stereo unspecified)"
  Percent Effect [%]: 20.09
- molecule: "CNc1nc(CS(=O)(=O)c2ccccc2)cs1"
  Percent Effect [%]: 106.2
- molecule: "CCC(CN1CCCC1)n1cncc1-c1cnn(-c2ccccc2)c1.Cl (stereo unspecified)"
  Percent Effect [%]: 55.09
- molecule: "Cn1cccc1C(O)CNC(=O)c1ccc(C(F)(F)F)cc1 (stereo unspecified)"
  Percent Effect [%]: 56.65
- molecule: "CCN(CC(C)C#N)C(=O)CNc1ccc(C(N)=O)c(C)c1 (stereo unspecified)"
  Percent Effect [%]: 7.465
- molecule: "Cn1cccc1C(O)CNC(=O)c1ccc(F)c(F)c1 (stereo unspecified)"
  Percent Effect [%]: 19.39
- molecule: "CCc1cnc(CN(C)C2CCN(CC3CCN(C(C)=O)CC3)C2)o1 (stereo unspecified)"
  Percent Effect [%]: 6.622
- molecule: "Cn1ncc2c1NC(=O)CC2c1c(F)cccc1Cl (stereo unspecified)"
  Percent Effect [%]: 13.6
- molecule: "CCOc1cc([C@@H]2N[C@H](c3nccs3)Cc3ccsc32)ccc1OC"
  Percent Effect [%]: 39.28
- molecule: "COc1ccc(-c2cc(C3CCCCCN3S(=O)(=O)N(C)C)on2)cc1 (stereo unspecified)"
  Percent Effect [%]: 15.93
- molecule: "Cn1cccc1C(CNC(=O)COc1ccc(Cl)cc1Cl)N1CCCC1 (stereo unspecified)"
  Percent Effect [%]: 27.47
- molecule: "COCCS(=O)(=O)c1ncc(CN(C)C)n1Cc1ccccc1"
  Percent Effect [%]: 5.309
- molecule: "Cc1ncc(C(=O)OCC2CCN(c3ccccc3)C2)s1 (stereo unspecified)"
  Percent Effect [%]: -13.58
- molecule: "C=C(C)CNc1nc(CS(=O)(=O)c2ccccc2)cs1"
  Percent Effect [%]: 8.279
- molecule: "O=c1[nH]c(CCN2CCN(CC(F)(F)F)CC2)nc2ccccc12"
  Percent Effect [%]: 106.7
- molecule: "CS(=O)(=O)N1CCO[C@@H]2CN(C(=O)C3CC(F)(F)C3)C[C@@H]2C1"
  Percent Effect [%]: -22.45
- molecule: "O=c1[nH]c(CCN2CCCC(Cn3cncn3)C2)nc2ccccc12 (stereo unspecified)"
  Percent Effect [%]: 33.45
- molecule: "CCC(CC)C(=O)N1CCN(Cc2nc3ccccc3c(=O)[nH]2)CC1"
  Percent Effect [%]: 5.405
- molecule: "CC1(Cc2ccc(F)cc2)Cc2cc(C(=O)NCCO)ccc2O1 (stereo unspecified)"
  Percent Effect [%]: 0.603
- molecule: "COCCN1CCO[C@H]2CN(Cc3cc[nH]n3)C[C@H]21.O=C(O)C(F)(F)F.O=C(O)C(F)(F)F"
  Percent Effect [%]: -6.862
- molecule: "Cn1cccc1C(O)CNC(=O)COc1ccccc1F (stereo unspecified)"
  Percent Effect [%]: 31.15
- molecule: "CNc1nc2c(s1)C(c1ccccc1F)CC(=O)N2 (stereo unspecified)"
  Percent Effect [%]: -4.667
- molecule: "CNc1nc2c(s1)C(c1c(Cl)cccc1Cl)CC(=O)N2 (stereo unspecified)"
  Percent Effect [%]: 107.9
- molecule: "O=C(c1cncs1)N1CCC(c2cnccn2)CC1"
  Percent Effect [%]: 7.442
- molecule: "CN(C)c1ncc(-c2cc(C(=O)O)n(CC3CC3)c2)cn1"
  Percent Effect [%]: 80.35
- molecule: "CNc1nc2c(s1)C(c1cccc(F)c1F)CC(=O)N2 (stereo unspecified)"
  Percent Effect [%]: -9.045
